- Tested on: Aphis craccivoral
- ASSAY_INFO: Insecticidal activity against Aphis craccivoral by immersing (dipping aphids on bean sprout)
- Assay type: in vivo
- EXPERIMENTAL_SETUP: 500 ppm; immersing (dipped 5 seconds); counted after 24 hours; 23° C.
Rule: measured mortality (%) (500 ppm) Aphis below 40% gets TRUE; anything equal to or greater than 40% gets FALSE.

>>> df
                                   molecule  assigned_category
0  CC(C)(C)COC1CCC([N+](=O)[O-])=C2N(CC3CCOC3)CCN21 (centres unmarked) [Compound 62]               TRUE
1  O=[N+]([O-])C1=C2N(CC3CCOC3)CCN2C(OCC(F)(F)F)CC1 (centres unmarked) [Compound 49]              FALSE
2  O=[N+]([O-])C1=C2N(Cc3cnc(Cl)s3)CCN2C(OC(C(F)(F)F)C(F)(F)F)CC1 (racemic) [Compound 30]              FALSE
3  CCCCCOC1CCC([N+](=O)[O-])=C2N(CC3CCOC3)CCN21 (centres unmarked) [Compound 58]               TRUE
4  C=CCOC1CCC([N+](=O)[O-])=C2N(Cc3ccc(Cl)nc3)CCN21 (racemic) [Compound 19]               TRUE
5  O=[N+]([O-])C1=C2N(Cc3cnc(Cl)s3)CCN2C(O)CC1 (racemic) [Compound 23]              FALSE
6  O=C(OC1CCC([N+](=O)[O-])=C2N(Cc3ccc(Cl)nc3)CCN21)c1cccnc1 (centres unmarked) [Compound 120]               TRUE
7  O=C(OC1CCC([N+](=O)[O-])=C2N(Cc3ccc(Cl)nc3)CCN21)c1ccc(F)cc1 (centres unmarked) [Compound 123]              FALSE

// data source = patent US7655665B2
